target: OGFOD1 (Homo sapiens); construct: made in house; assay: MALDI-TOF MS OGFOD1 hydroxylation assay; type: biochemical; conditions: isolated recombinant enzyme, 1 μM; read-out: IC50 OGFOD1
Sequence (Q8N543 whole entry): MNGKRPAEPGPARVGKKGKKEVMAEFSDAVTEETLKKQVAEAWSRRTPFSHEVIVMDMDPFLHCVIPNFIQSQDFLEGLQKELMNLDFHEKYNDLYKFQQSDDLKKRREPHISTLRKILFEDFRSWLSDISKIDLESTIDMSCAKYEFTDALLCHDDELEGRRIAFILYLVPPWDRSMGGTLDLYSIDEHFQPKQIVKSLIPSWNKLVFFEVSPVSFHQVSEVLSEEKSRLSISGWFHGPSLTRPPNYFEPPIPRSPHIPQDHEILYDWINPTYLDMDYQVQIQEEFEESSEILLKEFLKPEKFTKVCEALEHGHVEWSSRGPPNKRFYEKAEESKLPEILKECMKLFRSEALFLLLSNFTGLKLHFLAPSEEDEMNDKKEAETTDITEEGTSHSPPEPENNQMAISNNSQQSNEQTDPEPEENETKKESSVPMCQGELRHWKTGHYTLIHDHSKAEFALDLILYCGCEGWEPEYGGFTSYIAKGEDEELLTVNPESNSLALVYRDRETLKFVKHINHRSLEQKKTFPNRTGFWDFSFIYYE
OBSERVED PROPERTY: IC50 (nM)
Reply numerically in nM, unit not repeated.

Entry O=c1c(-n2ccnn2)c[nH]n1-c1cc(N2CCOCC2)ncn1 [Molidustat] , system OGFOD1 (Homo sapiens): what IC50 was measured? 5100

Field: IC50 (OGFOD1 (Homo sapiens)). Entry: O=C(O)CNC(=O)c1ncc(-c2cccc(Cl)c2)cc1O [Vadadustat] 1400

----------
Catalogue of IC50 values
molecular target: PHD2 catalytic domain (residues 181-426) (Homo sapiens, UniProt Q9GZT9); experiment: AlphaScreen antibody based PHD2 assay (HIF-1α CODD peptide hydroxylation); assay type: biochemical; design: 10 nM PHD2 (catalytic domain, residues 181–426); made in house; conditions: AlphaScreen; 5 nM PHD2, 2 μM 2OG, 60 nM biotinylated CODD peptide; read-out: IC50 PHD2
Sequence (Q9GZT9 181-426): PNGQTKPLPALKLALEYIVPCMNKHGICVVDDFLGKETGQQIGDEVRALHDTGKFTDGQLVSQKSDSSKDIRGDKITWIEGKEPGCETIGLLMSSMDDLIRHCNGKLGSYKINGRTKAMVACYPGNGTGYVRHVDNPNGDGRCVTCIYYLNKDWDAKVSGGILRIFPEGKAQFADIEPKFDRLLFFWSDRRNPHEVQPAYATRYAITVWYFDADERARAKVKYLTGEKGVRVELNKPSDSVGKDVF
Form entry: value (nM) — number only.

CC(C)(C)OC(=O)c1ccc(-n2[nH]cc(-n3ccnn3)c2=O)nc1	3

# get_value(readout='IC50', item= O=c1c(-n2ccnn2)c[nH]n1-c1cc(N2CCOCC2)ncn1 ) 7

----------
target: UniProtKB Q9GZT9; assay: LC-MS based RapidFire PHD2 hydroxylation assay; type: biochemical; settings: 150 nM isolated recombinant human PHD2, LC-MS based RapidFire assay
Item-by-item account of IC50
A number alone suffices; assume nM.

O=c1c(-n2ccnn2)c[nH]n1-c1cc(N2CCOCC2)ncn1	1320

So what does the record say about IC50 for CC(C)(C)OC(=O)c1ccc(-n2[nH]cc(-n3ccnn3)c2=O)nc1 ? 540

----------
Listed compounds paired with reported IC50
target: JARID1D (KDM5D) (Homo sapiens); experiment: AlphaScreen histone demethylase assay; format: biochemical; details: read-out: IC50 JARID1D (KDM5D)
Sequence (Q9BY66 whole entry): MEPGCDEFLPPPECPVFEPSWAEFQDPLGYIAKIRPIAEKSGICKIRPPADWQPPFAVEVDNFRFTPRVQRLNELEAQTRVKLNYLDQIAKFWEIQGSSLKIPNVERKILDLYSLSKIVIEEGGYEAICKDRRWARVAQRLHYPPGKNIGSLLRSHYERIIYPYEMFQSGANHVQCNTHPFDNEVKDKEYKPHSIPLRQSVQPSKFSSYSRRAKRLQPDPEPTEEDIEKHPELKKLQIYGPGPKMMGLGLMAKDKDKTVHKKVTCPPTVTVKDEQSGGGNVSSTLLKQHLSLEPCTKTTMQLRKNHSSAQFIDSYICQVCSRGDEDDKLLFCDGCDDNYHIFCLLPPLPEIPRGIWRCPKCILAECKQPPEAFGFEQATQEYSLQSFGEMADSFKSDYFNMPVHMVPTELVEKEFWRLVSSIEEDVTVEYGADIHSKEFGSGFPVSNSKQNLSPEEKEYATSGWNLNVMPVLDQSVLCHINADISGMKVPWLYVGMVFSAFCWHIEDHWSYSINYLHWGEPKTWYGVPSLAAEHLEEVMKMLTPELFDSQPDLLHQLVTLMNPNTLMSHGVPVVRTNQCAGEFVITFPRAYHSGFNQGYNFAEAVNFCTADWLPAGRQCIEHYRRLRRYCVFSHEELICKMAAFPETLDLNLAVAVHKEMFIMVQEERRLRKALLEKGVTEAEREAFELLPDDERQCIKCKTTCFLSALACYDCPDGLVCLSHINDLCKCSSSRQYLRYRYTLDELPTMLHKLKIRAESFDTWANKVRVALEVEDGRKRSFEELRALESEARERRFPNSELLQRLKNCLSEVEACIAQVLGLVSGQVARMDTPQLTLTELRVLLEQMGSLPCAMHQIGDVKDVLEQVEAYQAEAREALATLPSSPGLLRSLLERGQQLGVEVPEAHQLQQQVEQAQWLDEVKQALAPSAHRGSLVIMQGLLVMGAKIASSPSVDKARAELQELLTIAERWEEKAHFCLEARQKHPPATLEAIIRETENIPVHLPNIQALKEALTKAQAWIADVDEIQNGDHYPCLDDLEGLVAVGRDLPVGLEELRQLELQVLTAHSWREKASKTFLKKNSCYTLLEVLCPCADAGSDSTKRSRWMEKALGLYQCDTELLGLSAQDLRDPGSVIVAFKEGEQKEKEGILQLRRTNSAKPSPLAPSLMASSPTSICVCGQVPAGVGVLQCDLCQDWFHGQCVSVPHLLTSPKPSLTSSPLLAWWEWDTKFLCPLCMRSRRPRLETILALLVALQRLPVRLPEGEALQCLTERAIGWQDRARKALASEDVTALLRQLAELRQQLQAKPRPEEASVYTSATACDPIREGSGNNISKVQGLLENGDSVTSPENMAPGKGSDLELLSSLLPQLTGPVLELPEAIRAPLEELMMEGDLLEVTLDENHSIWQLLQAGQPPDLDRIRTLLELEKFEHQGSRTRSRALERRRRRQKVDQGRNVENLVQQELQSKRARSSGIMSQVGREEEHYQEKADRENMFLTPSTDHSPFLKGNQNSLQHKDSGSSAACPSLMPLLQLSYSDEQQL

Value lookup for IC50; key = O=c1c(-n2ccnn2)c[nH]n1-c1cc(N2CCOCC2)ncn1 > 100 µM

Fill in the blank: the reported IC50 of O=C(O)CNC(=O)c1ncc(-c2cccc(Cl)c2)cc1O is ____. > 100 µM

Fill blank: measured IC50 of the compound Cc1nc(C(=O)NCC(=O)O)c(O)c2ccc(Oc3ccccc3)cc12 is ____. > 100 µM

// returns reported IC50 for input CC(C)(C)OC(=O)c1ccc(-n2[nH]cc(-n3ccnn3)c2=O)nc1 91 µM

----------
target: UniProtKB P41229; test: AlphaScreen histone demethylase assay; assay type: biochemical; settings: read-out: IC50 JARID1C (KDM5C)
Sequence (P41229 whole entry): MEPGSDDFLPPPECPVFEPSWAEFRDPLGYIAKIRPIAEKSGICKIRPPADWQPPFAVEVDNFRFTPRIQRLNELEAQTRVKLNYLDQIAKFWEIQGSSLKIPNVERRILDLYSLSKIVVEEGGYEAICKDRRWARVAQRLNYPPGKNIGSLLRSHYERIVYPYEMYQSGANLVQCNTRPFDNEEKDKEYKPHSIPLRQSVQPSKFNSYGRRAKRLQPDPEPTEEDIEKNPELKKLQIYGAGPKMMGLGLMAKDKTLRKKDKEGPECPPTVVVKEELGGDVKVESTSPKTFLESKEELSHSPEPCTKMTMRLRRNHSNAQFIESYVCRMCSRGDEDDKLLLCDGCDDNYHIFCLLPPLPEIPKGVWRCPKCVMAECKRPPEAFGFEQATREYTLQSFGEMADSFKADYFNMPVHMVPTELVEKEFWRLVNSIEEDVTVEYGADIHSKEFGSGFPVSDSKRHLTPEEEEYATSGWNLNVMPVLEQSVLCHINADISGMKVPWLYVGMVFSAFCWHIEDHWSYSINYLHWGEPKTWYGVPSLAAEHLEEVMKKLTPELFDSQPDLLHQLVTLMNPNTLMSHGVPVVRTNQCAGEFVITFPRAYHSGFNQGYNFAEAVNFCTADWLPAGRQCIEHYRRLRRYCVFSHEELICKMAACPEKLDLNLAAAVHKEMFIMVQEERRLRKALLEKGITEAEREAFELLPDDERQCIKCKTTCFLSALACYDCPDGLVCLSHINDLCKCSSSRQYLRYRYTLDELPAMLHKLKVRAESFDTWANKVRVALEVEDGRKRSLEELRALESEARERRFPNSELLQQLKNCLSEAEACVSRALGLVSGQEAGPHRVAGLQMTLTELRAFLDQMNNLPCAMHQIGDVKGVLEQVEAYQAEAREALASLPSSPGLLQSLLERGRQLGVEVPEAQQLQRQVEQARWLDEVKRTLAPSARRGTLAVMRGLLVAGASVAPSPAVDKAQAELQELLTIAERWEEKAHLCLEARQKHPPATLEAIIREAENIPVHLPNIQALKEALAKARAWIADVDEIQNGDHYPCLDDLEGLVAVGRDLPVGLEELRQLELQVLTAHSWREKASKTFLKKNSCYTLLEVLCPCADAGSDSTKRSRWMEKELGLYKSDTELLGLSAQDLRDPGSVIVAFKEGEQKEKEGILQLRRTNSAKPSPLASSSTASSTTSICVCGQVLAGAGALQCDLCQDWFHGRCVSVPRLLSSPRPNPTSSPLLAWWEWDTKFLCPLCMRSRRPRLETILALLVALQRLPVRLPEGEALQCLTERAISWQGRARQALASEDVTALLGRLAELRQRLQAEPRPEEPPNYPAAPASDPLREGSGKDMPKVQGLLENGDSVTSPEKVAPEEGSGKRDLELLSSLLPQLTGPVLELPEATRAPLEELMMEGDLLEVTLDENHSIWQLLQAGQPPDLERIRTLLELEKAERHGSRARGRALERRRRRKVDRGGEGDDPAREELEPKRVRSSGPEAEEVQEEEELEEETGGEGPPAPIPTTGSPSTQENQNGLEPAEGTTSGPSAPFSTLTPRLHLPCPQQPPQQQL
pIC50: −log10 of the molar value.
OBSERVED PROPERTY: pIC50

O=c1c(-n2ccnn2)c[nH]n1-c1cc(N2CCOCC2)ncn1	< 4.00
CC(C)(C)OC(=O)c1ccc(-n2[nH]cc(-n3ccnn3)c2=O)nc1	4.01
Cc1nc(C(=O)NCC(=O)O)c(O)c2ccc(Oc3ccccc3)cc12	< 4.00

Which pIC50 value belongs to O=C(O)CNC(=O)c1ncc(-c2cccc(Cl)c2)cc1O ? < 4.00

----------
biological target: UniProtKB O15054; experiment: AlphaScreen histone demethylase assay; assay type: biochemical
pIC50: −log10 of the molar value.
OBSERVED PROPERTY: pIC50

Requested read-out: pIC50. Entry: O=C(O)CNC(=O)C1C(=O)N(C2CCCCC2)C(=O)N(C2CCCCC2)C1=O < 4.00
